List of cell viability values.
Tested on: P12-Ichikawa
procedure-summary: cell viability relative to DMSO control; higher = less cytotoxic
experimental-parameters: RPMI 5 mM glucose + 10% FBS; 48 h; 0.000781 µM
Dear colleague, please return just the value in %, with no unit written.

Reference set (4 entries):
CN1CCCC(CC1)N2\N=C(CC3=CC=C(Cl)C=C3)/C4=C(C=CC=C4)C2=O (stereo not drawn) = 109
C[S+](=O)([O-])c1cccc(CNc2nc(Nc3ccc4c(c3)CCC(=O)N4)ncc2C(F)(F)F)c1 = 119
CCCCCCCCCC(=O)N[C@@H](Cc1c[nH]c2ccccc12)C(=O)N[C@H](CC(N)=O)C(=O)N[C@@H](CC(=O)O)C(=O)N[C@@H]1C(=O)NCC(=O)N[C@@H](CCCN)C(=O)N[C@@H](CC(=O)O)C(=O)N[C@H](C)C(=O)N[C@@H](CC(=O)O)C(=O)NCC(=O)N[C@H](CO)C(=O)N[C@@H]([C@@H](C)CC(=O)O)C(=O)N[C@@H](CC(=O)c2ccccc2N)C(=O)O[C@@H]1C = 106
Cc1cnc(C(=O)O)c[n+]1[O-] = 122

# input What does the record list as cell viability for Oc1cccc(-c2nc(N3CCOCC3)c3oc4ncccc4c3n2)c1 ?
# output 122

# input Need cell viability, item COc1ccc2[nH]c([S+]([O-])Cc3ncc(C)c(OC)c3C)nc2c1 (stereo not drawn)
# output 73.7

# input Which cell viability value is on record for CN(C)CC[C@H](c1ccc(Cl)cc1)c1ccccn1 ?
# output 76.9

# input For the compound Nc1ncnc2ccccc12 , what cell viability is on record?
# output 84.2

* * *

Item-by-item account of cell viability
Tested on: SEM cells
procedure-summary: cell viability relative to DMSO control; higher = less cytotoxic
experimental-parameters: RPMI 5 mM glucose + 10% FBS; 48 h; 0.19 µM
Your answer should be a plain number; it is taken to be in %.

C=CC(=O)Nc1cccc(Nc2nc(NC3CCC(N(C)C)CC3)nc3c2ncn3C(C)C)c1 (stereo unspecified) = 106

# input Can you share its cell viability? I mean this compound: CC[C@@]1(O)C(=O)OCC/2=C1/C=C3\N(CC4=CC5=CC(=CC=C5N=C34)O)C2=O
# output 11.6

# input Report cell viability for CCC(=O)N[C@H]1CC[C@H](C(=O)N(C)c2ccc(-c3nc4ccccc4o3)cc2)C1 please.
# output 101

# input Need cell viability of C/C(O)=C(\C#N)C(=O)Nc1cc(Br)ccc1Br , thanks.
# output 112

# input For Nc1ncnc2ccccc12 , what is its reported cell viability?
# output 102

# input GET /values?readout=cell viability&item= CN[C@@H](C)C(=O)N[C@H]1CN(C(=O)CC(C)C)CC[C@H]2CC[C@@H](C(=O)NC(c3ccccc3)c3ccccc3)N2C1=O
# output 102

# input I am curious: what cell viability value has been reported for COCCOc1nc(-c2ccc(Cl)c(Cl)c2)n(-c2ccc(NC(=O)CCl)cc2)n1 ?
# output 85.7

# input Item CNCc1ccc(-c2[nH]c3cc(F)cc4c3c2CCNC4=O)cc1 has what recorded cell viability?
# output 127

# input Data request, read-out cell viability, for Nc1cc(C(F)(F)F)c(-c2cc(N3CCOCC3)nc(N3CCOCC3)n2)cn1
# output 64.2

# input For O=C(Nc1ncc(SCCN2CCCC2)s1)[C@]1(c2ccc([S+](=O)([O-])C3CC3)cc2)C[C@H]1C1CCCCC1 , what is its reported cell viability?
# output 126

# input What value of cell viability has been reported for the following compound? O=C(c1ccc(F)c(F)c1Nc1ccc(I)cc1F)N1CC(O)([C@@H]2CCCCN2)C1
# output 100

# input Given O=C1Nc2ccc(I)cc2/C1=C/c1cc(Br)c(O)c(Br)c1 , state its recorded cell viability.
# output 115

# input Give its cell viability value. Item: Cn1c(=O)n(-c2ccc(C(C)(C)C#N)cc2)c2c3cc(-c4cnc5ccccc5c4)ccc3ncc21
# output 33.6

# input Give the measured cell viability of COc1cc2nc(-c3cc(F)ccc3O)nc(N[C@@H]3CNC[C@H]3C(C)(C)O)c2cc1OC .
# output 62.3

# input // query cell viability value for entry C[S+](=O)([O-])c1cccc(CNc2nc(Nc3ccc4c(c3)CCC(=O)N4)ncc2C(F)(F)F)c1
# output 125

# input What does the data say about its cell viability? Entry: O=C(O)COCCN1CCN(C(c2ccccc2)c2ccc(Cl)cc2)CC1 (stereo unspecified)
# output 95.4

* * *

Tested on: NOMO1
procedure-summary: cell viability relative to DMSO control; higher = less cytotoxic
experimental-parameters: RPMI 5 mM glucose + 10% FBS; 48 h; 5.12 µM
Flag rule - cell viability less than 90% flags fulfilled; the remaining entries get not fulfilled.

# input I wonder whether Nc1cc(C(F)(F)F)c(-c2cc(N3CCOCC3)nc(N3CCOCC3)n2)cn1 has cell viability below 90%. Can you tell?
# output fulfilled

# input Hello, I'm reviewing records and need to know if cell viability of CCC\C1=C\C(=O)NC(=S)N1 is below 90%. Could you check?
# output not fulfilled

# input Answer whether the compound CC1(N2CCC(n3c([C@@H]4CCCNC4)nc4ccccc43)CC2)CCCCCCC1 has cell viability strictly less than 90%
# output not fulfilled

# input Here's an entry: CCC(=C/[C@H](C)C/C=C/C(C)=C/[C@@H](C)C(=O)[C@@H](C)[C@H](O)[C@@H](C)C/C(C)=C/C(=O)O)/C=C/[C@@H]1OC(=O)C=C[C@@H]1C . Is its cell viability below 90%?
# output fulfilled

# input Item CC[C@]12\C=C/CN3CC[C@]4([C@@H](N(C)C5=CC(=C(C=C45)[C@]6(C[C@H]7C[C@H](CN(C7)CC8=C6[NH]C9=C8C=CC=C9)C(C)(F)F)C(=O)OC)OC)[C@](O)([C@@H]1OC(C)=O)C(=O)OC)[C@H]23 : cell viability beneath 90%, strictly?
# output fulfilled

# input Field: below-cutoff. Rule: recorded cell viability strictly less than 90%. Subject: CN[C@@H]1Cc2cccc3[nH]c(=O)n(c23)C1
# output not fulfilled

# input # strict comparison: is reported cell viability < 90%? input = COc1cc2nc(-c3cc(F)ccc3O)nc(N[C@@H]3CNC[C@H]3C(C)(C)O)c2cc1OC
# output not fulfilled

# input Does the reported cell viability of the following compound sit strictly below 90%? C[S+](=O)([O-])c1cccc(CNc2nc(Nc3ccc4c(c3)CCC(=O)N4)ncc2C(F)(F)F)c1
# output not fulfilled

* * *

Reported cell viability is given for each of the following compounds.
Test system: SEM cells
procedure-summary: cell viability relative to DMSO control; higher = less cytotoxic
experimental-parameters: RPMI 5 mM glucose + 10% dialyzed FBS; 48 h; 0.569 µM
Number in %, nothing else.

Completed entries (count: 2):
CCCCCCCCCC(=O)N[C@@H](Cc1c[nH]c2ccccc12)C(=O)N[C@H](CC(N)=O)C(=O)N[C@@H](CC(=O)O)C(=O)N[C@@H]1C(=O)NCC(=O)N[C@@H](CCCN)C(=O)N[C@@H](CC(=O)O)C(=O)N[C@H](C)C(=O)N[C@@H](CC(=O)O)C(=O)NCC(=O)N[C@H](CO)C(=O)N[C@@H]([C@@H](C)CC(=O)O)C(=O)N[C@@H](CC(=O)c2ccccc2N)C(=O)O[C@@H]1C = 117
CN1CCCC(CC1)N2\N=C(CC3=CC=C(Cl)C=C3)/C4=C(C=CC=C4)C2=O (stereo not drawn) = 108

As a next step, examine the compound that follows.
# input // query cell viability value for entry COc1ncnc(N[S+](=O)([O-])c2ccc(N)cc2)c1OC
# output 86.1

* * *

Test system: P12-Ichikawa
procedure-summary: AUC of viability dose-response curve (% viability x log10 dose units); higher = less sensitive
experimental-parameters: RPMI 5 mM glucose + 10% dialyzed FBS; 48 h
property-measured: AUC of viability dose-response curve
Reply with just the number.

Answered cases to consult:
O=C(Cc1ccc(-c2ccc(OCCN3CCOCC3)cc2)cn1)NCc1ccccc1 = 222
COC(=O)C1C2CC3c4[nH]c5cc(OC)ccc5c4CCN3CC2CC(OC(=O)c2cc(OC)c(OC)c(OC)c2)C1OC (centres undefined) = 445
CC[C@@]1(O)C(=O)OC\C2=C1\C=C\3N(CC4=C3N=C5C=CC=CC5=C4)C2=O = 161

Kindly consider the entry below.
# input Request - read-out AUC of viability dose-response curve | tested on P12-Ichikawa | compound C[C@H]1CC2C3CCC/4=C/C(=O)/C=C\[C@]4(C)[C@@]3(F)[C@@H](O)C[C@]2(C)[C@@]1(O)C(=O)CO (some centres undefined)
# output 330

* * *

Attribute: cell viability
System: NOMO1
procedure-summary: cell viability relative to DMSO control; higher = less cytotoxic
experimental-parameters: HPLM + 10% dialyzed FBS; 48 h; 46.1 µM
Note: unit % is implicit; provide only the numeric part.

# input Quick one: cell viability for CC1(C)CNc2cc(NC(=O)c3cccnc3NCc3ccncc3)ccc21 ?
# output 91.8

# input // returns reported cell viability for input CN1C(=O)C[C@H](C(=O)N[C@@H](Cc2cnc[nH]2)C(=O)N2CCC[C@H]2C(N)=O)NC1=O
# output 107

# input Which cell viability reading was recorded for the molecule CCN(C(=O)C/1=C(O)/C2=C(C=CC=C2Cl)N(C)C1=O)C3=CC=CC=C3 ?
# output 3.67

# input Which cell viability value is on record for COc1ccc([C@@H]2CC(=O)c3c(O)cc(O[C@@H]4O[C@H](CO[C@@H]5O[C@@H](C)[C@H](O)[C@@H](O)[C@H]5O)[C@@H](O)[C@H](O)[C@H]4O)cc3O2)cc1O ?
# output 117

# input Entry under review: CN(C)CCOc1ccc(-c2nc(-c3ccncc3)c(-c3ccc4c(c3)CC/C4=N\O)[nH]2)cc1 . Reported cell viability?
# output 62.9

# input Give the measured cell viability of COc1ncnc(N[S+](=O)([O-])c2ccc(N)cc2)c1OC .
# output 7.76

# input Quick check: cell viability of O=C(Nc1ncc(-c2cc(C(F)F)nn2-c2c(Cl)cccc2Cl)s1)C1CC1 ?
# output 49

# input Looking for the measured cell viability of CC(C)C[C@H](NC(=O)CNC(=O)c1cc(Cl)ccc1Cl)B(O)O , can you help?
# output 4.02
